# ASSAY: Therapeutic index, ratio of IC50 for HOS cells to EC50 for human HIV1
# Type: cell-based
# MEASUREMENT_CONDITIONS: read-out: Ratio IC50/EC50
QUANTITY: selectivity ratio
Answer as a number with no unit attached.

Worked cases, answers included:
CCCc1c(Cl)c(=O)oc2c3c(c4c(c12)OC(C)(C)C=C4)OC(C)CC3=O (stereo not given) | 243
CCCc1cc(=O)oc2c3c(c4c(c12)OC(C)(C)C=C4)OC(C)(C)CC3=O | 47

Shift focus to the following entry.
Problem: I would be grateful if you could share the reported selectivity ratio for CCCc1cc(=O)oc2c3c(c4c(c12)OC(C)(C)C=C4)OC(CCC)CC3=O (stereo not given) .
Solution: 102

* * *

# System: Human immunodeficiency virus 1
# ASSAY: Antiviral activity against HIV1
# Assay type: functional, organism-based
QUANTITY: EC50 (nM)
Reply with just the number (in nM).

CCc1cc(=O)oc2c3c(c4c(c12)OC(C)(C)C=C4)OC(C)CC3=O (configuration not stated) | 270

Problem: Quick one: EC50 of CCCc1cc(=O)oc2c3c(c4c(c12)OC(C)(C)C=C4)OC(CCC)CC3=O (configuration not stated) ?
Solution: 32.5

Problem: For the compound "CCCc1cc(=O)oc2c3c(c4c(c12)OC(C)(C)C=C4)OC(C)(C)CC3=O" , what EC50 is on record?
Solution: 640

Problem: Would you mind telling me what EC50 value was observed for CCCc1c(Cl)c(=O)oc2c3c(c4c(c12)OC(C)(C)C=C4)OC(C)CC3=O (configuration not stated) ?
Solution: 370

Problem: Bench note: what EC50 did CCCc1cc(=O)oc2c3c(c4c(c12)OC(C)(C)C=C4)OC(CBr)CC3=O (configuration not stated) show?
Solution: 2.85

Problem: Looking for the measured EC50 of CCCc1cc(=O)oc2c3c(c4c(c12)OC(C)(C)C=C4)OC(C)CC3O (racemic) , can you help?
Solution: 310

Problem: Suppose we examine the compound CCCc1cc(=O)oc2c3c(c4c(c12)OC(C)(C)C=C4)O[C@H](C)[C@@H](C)[C@@H]3O [CALANOLIDE A] ; what EC50 value has been reported?
Solution: 100
